target: recombinant N-terminal GST-tagged human Rho kinase 1 (ROCK1, amino acids 1-535) (Homo sapiens, UniProt Q13464); construct: ROCK1, amino acids 1-535; purchased Invitrogen Inc. PV-3691; assay: In vitro Rho kinase assay (luciferase-based ATP consumption), ROCK1; format: biochemical; conditions: recombinant GST-tagged human ROCK1, luciferase-based ATP consumption; read-out: ROCK1 IC50
Sequence (Q13464 1-535): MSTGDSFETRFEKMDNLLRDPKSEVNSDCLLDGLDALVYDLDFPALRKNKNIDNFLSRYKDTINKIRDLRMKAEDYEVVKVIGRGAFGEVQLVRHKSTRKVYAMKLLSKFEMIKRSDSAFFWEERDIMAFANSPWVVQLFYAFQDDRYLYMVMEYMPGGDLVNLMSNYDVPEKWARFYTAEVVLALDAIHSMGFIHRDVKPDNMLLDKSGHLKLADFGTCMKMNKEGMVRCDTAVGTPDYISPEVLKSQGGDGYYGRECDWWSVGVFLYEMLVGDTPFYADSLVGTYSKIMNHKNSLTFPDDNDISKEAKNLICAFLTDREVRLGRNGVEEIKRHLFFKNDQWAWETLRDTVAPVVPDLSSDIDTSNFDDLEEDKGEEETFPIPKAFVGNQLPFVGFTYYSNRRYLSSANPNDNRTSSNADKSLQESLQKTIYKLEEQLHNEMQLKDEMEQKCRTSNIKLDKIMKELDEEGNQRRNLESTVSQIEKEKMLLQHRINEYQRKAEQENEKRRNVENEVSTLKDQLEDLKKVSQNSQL
pIC50: −log10 of the molar value.
Quantity: pIC50

Below are worked cases with known answers.
INSERT INTO assay_data (compound, measured_result) VALUES
  ('CC(=O)c1ccccc1C(=O)NCc1ccc2sc(-c3ccnc(N)n3)c(C)c2c1', '< 5.30'),
  ('Cc1c(-c2ccnc(N)n2)sc2ccc(Nc3cccc(NC(=O)c4ccc(O)cc4)c3)cc12', '> 5.30'),
  ('Cc1c(-c2ccnc(N)n2)sc2ccc(CNC(=O)C(NC(=O)OC(C)(C)C)C(C)C)cc12 (stereo not shown) [Example 292]', '> 5.30'),
  ('COc1ccc(O)c(C(=O)NCc2ccc3sc(-c4ccnc(N)n4)c(C)c3c2)c1', '< 5.30'),
  ('Cc1c(-c2ccnc(N)n2)sc2ccc(Nc3cncc(C(=O)O)c3)cc12', '> 5.30'),
  ('COC(=O)c1cccc(Cc2ccc3sc(-c4ccnc(N)n4)c(C)c3c2)c1', '< 5.30'),
  ('Cc1c(-c2ccnc(N)n2)sc2ccc(CNC(=O)C3CC(O)CN3C(=O)OC(C)(C)C)cc12 (stereo not shown)', '< 5.30'),
  ('Cc1c(-c2ccnc(N)n2)sc2ccc(CNC(=O)c3ccncc3)cc12', '< 5.30');

Recorded pIC50 for "Cc1c(-c2ccnc(N)n2)sc2ccc(CNC(=O)c3ccc4ccccc4c3O)cc12" , please? < 5.30

Recorded pIC50 for "Cc1ccc(F)cc1C(=O)NCc1ccc2sc(-c3ccnc(N)n3)c(C)c2c1" , please? < 5.30

Recorded pIC50 for "Cc1c(-c2ccnc(N)n2)sc2ccc(CNC(=O)CC#N)cc12" , please? > 5.30

Recorded pIC50 for "Cc1ccc(C(=O)NCc2ccc3sc(-c4ccnc(N)n4)c(C)c3c2)cc1C" , please? < 5.30

Recorded pIC50 for "Cc1c(-c2ccnc(N)n2)sc2ccc(CNC(=O)CCc3nc4ccccc4[nH]3)cc12" , please? > 5.30

Recorded pIC50 for "Cc1c(-c2ccnc(N)n2)sc2ccc(Cc3cccc(OCCN(C)C)c3)cc12" , please? > 5.30

Recorded pIC50 for "Cc1c(-c2ccnc(N)n2)oc2ccccc12" , please? > 5.30

Recorded pIC50 for Cc1c(-c2ccnc(N)n2)sc2ccc(CNC(=O)C(C)c3ccc(O)cc3)cc12 (stereo not shown) , please? > 5.30

Recorded pIC50 for Cc1c(-c2ccnc(N)n2)sc2ccc(CNC(=O)C3CCCCN3C(=O)OC(C)(C)C)cc12 (stereo not shown) , please? < 5.30
